Sourced from ChEMBL document CHEMBL2390903

Collected inhibition at 24 h, 40 ug/mL values appear next to each entry.
# protocol notes: Cytotoxicity against mouse J744 cells assessed as growth inhibition at 40 ug/mL after 24 hrs by MTT assay relative to control
# Assay type: cell-based
# condition context: read-out: GI
Report as a plain number; the unit % is understood.

CC(=O)NC[C@H]1CN(c2ccc(N3CCN(Cc4cc(-c5ccc(C(C)C)cc5)n(-c5ccc(F)cc5F)c4C)CC3)c(F)c2)C(=O)O1 :: 40.2
Cc1ccccc1-c1cc(CN2CCN(c3ccc(N4C[C@H](Cn5cc(-c6ccccn6)nn5)OC4=O)cc3F)CC2)c(C)n1-c1ccc(F)c(F)c1 :: 40
Cc1c(CN2CCN(c3ccc(N4C[C@H](Cn5cc(-c6ccccn6)nn5)OC4=O)cc3F)CC2)cc(-c2ccc(Cl)c(F)c2)n1-c1ccc(OC(F)(F)F)cc1 :: 37.7
Cc1c(CN2CCN(c3ccc(N4C[C@H](Cn5cc(-c6ccccn6)nn5)OC4=O)cc3F)CC2)cc(-c2ccc(F)cc2F)n1-c1ccc(F)cc1 :: 31.9

Any idea what its inhibition at 24 h, 40 ug/mL is? The compound is Cc1c(CN2CCN(c3ccc(N4C[C@H](Cn5cc(-c6ccccn6)nn5)OC4=O)cc3F)CC2)cc(-c2ccc(F)cc2F)n1-c1cc(F)ccc1Br
43.9

Any idea what its inhibition at 24 h, 40 ug/mL is? The compound is Cc1ccccc1-c1cc(CN2CCN(c3ccc(N4C[C@H](Cn5cc(-c6cncn6C)nn5)OC4=O)cc3F)CC2)c(C)n1-c1ccc(F)cc1
49.3

Any idea what its inhibition at 24 h, 40 ug/mL is? The compound is Cc1c(CN2CCN(c3ccc(N4C[C@H](Cn5cc(-c6cncn6C)nn5)OC4=O)cc3F)CC2)cc(-c2ccc(C(C)C)cc2)n1-c1ccc(F)cc1F
44.7

---

# Tested on: Staphylococcus aureus
# protocol notes: Antibacterial activity against Staphylococcus aureus MTCC 96 assessed as growth inhibition after 24 hrs by agar dilution method
# Type: functional
# condition context: MTCC 96, 24 h
assay metric: MIC (µg/mL)
Report as a plain number; the unit µg/mL is understood.

Worked set:
Cc1c(CN2CCN(c3ccc(N4C[C@H](Cn5cc(-c6cncn6C)nn5)OC4=O)cc3F)CC2)cc(-c2ccc(C(C)C)cc2)n1-c1ccc(F)cc1F :: 8
Cc1c(CN2CCN(c3ccc(N4C[C@H](Cn5cc(-c6ccccn6)nn5)OC4=O)cc3F)CC2)cc(-c2ccc(F)cc2F)n1-c1ccc(F)cc1 :: 0.5
Cc1ccccc1-c1cc(CN2CCN(c3ccc(N4C[C@H](Cn5cc(-c6cncn6C)nn5)OC4=O)cc3F)CC2)c(C)n1-c1ccc(F)cc1 :: 10

Any idea what its MIC is? The compound is CC(=O)NC[C@H]1CN(c2ccc(N3CCOCC3)c(F)c2)C(=O)O1
1.5

Any idea what its MIC is? The compound is Cc1ccccc1-c1cc(CN2CCN(c3ccc(N4C[C@H](Cn5cc(-c6cncn6C)nn5)OC4=O)cc3F)CC2)c(C)n1-c1ccc(F)c(F)c1
10

Any idea what its MIC is? The compound is CC(=O)NC[C@H]1CN(c2ccc(N3CCN(Cc4cc(-c5ccccc5C)n(-c5ccc(F)cc5)c4C)CC3)c(F)c2)C(=O)O1
1.5
